tgt: T1, rhesus serum albumin (rhesus, UniProt Q28522 17-600)
T1 construct: also called RhSA
measurement-description: SPR, single cycle kinetics, pH 7.4
parameter-measured: Kd (nM)
// units = nM; emit number, no label

What value of measured Kd is listed for H18-H5 (VHH) VHH: QVQLVESGGGLVQPGGSLRLSCAASGSIESINRMAWYRQAPGQQREFVARISKGGSTNYPDSVKGRFTISRDNAKNTVYLQMNSLRAEDTAVYYCAAGPVWEQFWGQGTLVTVSS ?
91.7

What value of measured Kd is listed for M75-H3 (VHH) VHH: QVQLVESGGGLVQPGGSLRLSCAASGRTFDNYVMAWFRQAPGKEREFVASISGSGSITNYANSVKDRFTISRDNSKNTLYLQMNSLRAEDTAVYYCAAGSRRTYYREPKFYPSWGQGTLVTVSS ?
17.7

What value of measured Kd is listed for R28-H1 (VHH) VHH: EVQLVESGGGLVQPGGSLRLSCAASGRTFIAYAMGWFRQAPGKGLEFVSAITNFAGGTTYYADSVKGRFTISRDNSKNTLYLQMNSLRAEDTAVYYCAADRSAQTMRQVRPVLPYWGQGTLVTVSS ?
2710
